Origin of values: PubChem BioAssay AID330

test system: P388 leukemia ip, CD2F1 mice, survival T/C; assay: NCI In Vivo Anticancer Drug Screen. Data for tumor model P388 Leukemia (intraperitoneal) in CD2F1 (CDF1) mice; conditions: endpoint: median survival time; dose: 200.0 mg/kg/injection; schedule: Q04DX002 (ip); vehicle: Klucel (hydroxypropylcellulose) (HPC); higher = longer survival
Inconclusive results and toxic doses are left out.
T/C reference

The cases that follow already have their T/C on record.
COMPOUND: C=C1C(C(=O)OCC)=NNc2c(C(N)=O)ncn21
SUBJECT_OF_TEST: P388 leukemia ip, CD2F1 mice, survival T/C
T/C: 101 % of control
--
COMPOUND: CC(=O)Nc1ccc(S(=O)(=O)Oc2noc3ccc(S(N)(=O)=O)cc23)cc1
SUBJECT_OF_TEST: P388 leukemia ip, CD2F1 mice, survival T/C
T/C: 107 % of control
--
COMPOUND: Cc1c2cnccc2c(C)c2c1[nH]c1ccccc12
SUBJECT_OF_TEST: P388 leukemia ip, CD2F1 mice, survival T/C
T/C: 111 % of control
--
COMPOUND: COc1ccc(C2=C(Cl)C(=O)N(c3ccccc3)C(=O)C2(Cl)Cl)cc1
SUBJECT_OF_TEST: P388 leukemia ip, CD2F1 mice, survival T/C
T/C: 107 % of control
--
COMPOUND: CC(=O)Nc1ccc(S(=O)(=O)Nc2cccc3[nH]c(=O)oc23)cc1
SUBJECT_OF_TEST: P388 leukemia ip, CD2F1 mice, survival T/C
T/C: 92 % of control
--
COMPOUND: O=C1SC(Nc2ccccc2)/C(=N\N=C2/C(Nc3ccccc3)SC(=O)N2Cc2ccccc2)N1Cc1ccccc1 (stereo not drawn)
SUBJECT_OF_TEST: P388 leukemia ip, CD2F1 mice, survival T/C
T/C: 94 % of control
--
COMPOUND: COc1c(COC(C)=O)ccc2c1C(=O)c1ccccc1C2=O
SUBJECT_OF_TEST: P388 leukemia ip, CD2F1 mice, survival T/C
T/C: 92 % of control

**Query** Kindly state the measured T/C obtained for Cc1ccc(N=Nc2c(-c3ccccc3)nn(C(=S)S)c2C)cc1 with P388 leukemia ip, CD2F1 mice, survival T/C.
**Result** 96 % of control

###

tested on: P388 leukemia ip, CD2F1 mice, survival T/C; test: NCI In Vivo Anticancer Drug Screen. Data for tumor model P388 Leukemia (intraperitoneal) in CD2F1 (CDF1) mice; conditions: endpoint: median survival time; dose: 400.0 mg/kg/injection; schedule: Q04DX003 (ip); vehicle: other
Inconclusive results and toxic doses are left out. Rule for the calls: active = survival T/C of 150% or more; inactive = T/C below 125% in these data.
Outcomes you can answer with include only these: 1.0 for active, 0.0 for inactive

Worked examples, 4 molecules total:
MOLECULE: CC1CCC2(C)CCC3(C)C4=CCC5C(C)(C)C(O)CCC5(C)C4CCC3(C)C2C1C (stereo not given)
CAT: 0.0
//
MOLECULE: C1CCC2(CC1)SC1(CCCCC1)SC1(CCCCC1)S2
CAT: 0.0
//
MOLECULE: CC(C)(C)C1C=Nn2c(=O)n(-c3ccccc3)c(=O)n21 (stereo not given)
CAT: 0.0
//
MOLECULE: c1ccc2cc3c(ccc4ccccc43)cc2c1
CAT: 0.0

**Query** Hi team, can someone confirm the assay call for NCC(=O)CN.[Cl-].[Cl-].[Pt+2] ?
**Result** 1.0

###

tested on: P388 leukemia ip, CD2F1 mice, survival T/C; assay: NCI In Vivo Anticancer Drug Screen. Data for tumor model P388 Leukemia (intraperitoneal) in CD2F1 (CDF1) mice; conditions: endpoint: median survival time; dose: 200.0 mg/kg/injection; schedule: Q01DX009 (ip); vehicle: suspension in saline; higher = longer survival
Inconclusive results and toxic doses are left out.
PROPERTY_LABEL: T/C

Would you please look over these solved cases?
STRUCTURE_SMILES_STRING: FS(F)(F)(F)(F)c1cccc(NC(=S)SCc2ccc3c(c2)OCO3)c1
T/C: 102 % of control
--
STRUCTURE_SMILES_STRING: CSc1ccc(N2C(=O)CSC2=S)cc1Cl
T/C: 104 % of control
--
STRUCTURE_SMILES_STRING: NCCc1cc(=O)[nH]o1
T/C: 91 % of control
--
STRUCTURE_SMILES_STRING: O=[N+]([O-])c1ccc(/C(=C/c2ccc(Cl)cc2Cl)S(=O)(=O)C(Cl)Cl)o1
T/C: 103 % of control

**Query** Recorded T/C for COc1ccc(CSC(=S)Nc2ccc(Cl)c([N+](=O)[O-])c2)cc1 , please?
**Result** 99 % of control

###

T/C values for the molecules below.
test system: P388 leukemia ip, CD2F1 mice, survival T/C; experiment: NCI In Vivo Anticancer Drug Screen. Data for tumor model P388 Leukemia (intraperitoneal) in CD2F1 (CDF1) mice; conditions: endpoint: median survival time; dose: 400.0 mg/kg/injection; schedule: Q04DX002 (ip); vehicle: Klucel (hydroxypropylcellulose) (HPC); higher = longer survival
Inconclusive results and toxic doses are left out.

MOLECULE: COc1ccc(C2=C(Cl)C(=O)N(c3ccccc3)C(=O)C2(Cl)Cl)cc1
T/C: 107 % of control

**Query** Can you look up the measured T/C of S=C(N/N=C\c1nc2ccccc2c2ccccc12)Nc1ccccc1 for me?
**Result** 93 % of control

**Query** // repeat for CCN(CC)C(=O)C(C)C1=C(C)C(N(CC)CC)=NS(=O)(=O)c2ccccc21 (stereo not drawn) and report
**Result** 109 % of control

**Query** Another molecule to look at: CCCCCCCCCCCCCCCC[N+]1(CCC(C)C)CCOCC1
**Result** 104 % of control

###

Measured T/C by item
test system: P388 leukemia ip, CD2F1 mice, survival T/C; test: NCI In Vivo Anticancer Drug Screen. Data for tumor model P388 Leukemia (intraperitoneal) in CD2F1 (CDF1) mice; settings: endpoint: median survival time; dose: 6.25 mg/kg/injection; schedule: Q01DX009 (ip); vehicle: Klucel (hydroxypropylcellulose) (HPC); higher = longer survival
Toxic doses and inconclusive results are not listed.

COMPOUND: CN(C)N=Nc1cccc(Cl)c1
SUBJECT_OF_TEST: P388 leukemia ip, CD2F1 mice, survival T/C
REPORTED_MEASUREMENT: 95 % of control

**Query** Need T/C, item ClC1CC[N-]CC1.ClC1CC[N-]CC1.[Cl][Pt+2]([Cl])([Cl])[Cl]
**Result** 166 % of control

**Query** Next up: O=C1C=C(C2=CC(=O)c3cccc(O)c3C2=O)C(=O)c2c(O)cccc21
**Result** 115 % of control

###

Below, each of the molecules is paired with its reported T/C value.
test system: P388 leukemia ip, CD2F1 mice, survival T/C; assay: NCI In Vivo Anticancer Drug Screen. Data for tumor model P388 Leukemia (intraperitoneal) in CD2F1 (CDF1) mice; conditions: endpoint: median survival time; dose: 200.0 mg/kg/injection; schedule: Q01DX009 (ip); vehicle: saline; higher = longer survival
Toxic doses and inconclusive results are not listed.

In the examples that follow, each entry is paired with its recorded T/C.
MOLECULE: CC(=O)OC(=O)C(NC(=O)C(N)CC(C)C)C(C)C (centres undefined)
T/C: 100 % of control

MOLECULE: Cc1ncc(C[n+]2csc(CCO)c2C)c(N)n1
T/C: 97 % of control

MOLECULE: CN(C)N=Nc1cccc(Cl)c1
T/C: 100 % of control

MOLECULE: C/C(N)=N\O
T/C: 104 % of control

MOLECULE: C=C[Se](=C(C(=O)c1ccccc1)C(=O)c1ccccc1)c1ccccc1 (centres undefined)
T/C: 113 % of control

MOLECULE: CN1CNC(=S)NC1
T/C: 101 % of control

MOLECULE: CC1(C)OCC(CO)O1 (centres undefined)
T/C: 111 % of control

MOLECULE: Cc1[nH]oc(=O)c1C(=O)O
T/C: 89 % of control

**Query** Look up T/C: CCCC(C(=O)OC(C)CN1C(C)CCC1C)C1CCCC1 (centres undefined)
**Result** 103 % of control

**Query** Now the same for CC(=O)NCCCC(=O)O
**Result** 98 % of control

###

tested on: P388 leukemia ip, CD2F1 mice, survival T/C; assay: NCI In Vivo Anticancer Drug Screen. Data for tumor model P388 Leukemia (intraperitoneal) in CD2F1 (CDF1) mice; settings: endpoint: median survival time; dose: 100.0 mg/kg/injection; schedule: Q01DX005 (ip); vehicle: Klucel (hydroxypropylcellulose) (HPC); higher = longer survival
Toxic doses and inconclusive results are not listed.
PROPERTY_LABEL: T/C

In the examples that follow, each entry is paired with its recorded T/C.
MOLECULE: Cc1cnc(N)c(C(=O)O)n1
T/C: 90 % of control
//
MOLECULE: Cc1ccc(S(=O)(=O)C(Cc2cc(Cl)cc(Cl)c2O)C(=O)c2ccccc2)cc1 (configuration not stated)
T/C: 90 % of control
//
MOLECULE: CC1(C)OC2(C=CC(C)([N+](=O)[O-])C=C2)OC1=O (configuration not stated)
T/C: 94 % of control
//
MOLECULE: CC1C2C1C1C3NN=CC3C2n2c(=O)n(-c3ccccc3)c(=O)n21 (configuration not stated)
T/C: 100 % of control
//
MOLECULE: CC(C)CCOCCOCCCN1C(=O)C2C3C=CC(C3)C2C1=O (configuration not stated)
T/C: 100 % of control
//
MOLECULE: Nc1ncnc2c1ncn2C[c-]1[c-][c-][c-][c-]1.[Fe].[c-]1[c-][c-][cH-][c-]1
T/C: 94 % of control
//
MOLECULE: COc1cc(OC)c(/C=N/Nc2cc(C)c3ccc(OC)cc3n2)c(OC)c1
T/C: 113 % of control
//
MOLECULE: COc1ccc(/C=N/NC(=O)CNC(=O)Nc2n[nH]c(=S)s2)cc1
T/C: 104 % of control
//
MOLECULE: Cc1ccc(S(=O)(=O)NC(CN(CC(=O)O)N=O)C(=O)O)cc1 (configuration not stated)
T/C: 96 % of control
//
MOLECULE: CCOC(=O)c1cnc(NCCCCCCNc2ncc(C(=O)OCC)c(=O)[nH]2)[nH]c1=O
T/C: 91 % of control

**Query** Can you look up the measured T/C of c1c[nH]c(C2Nc3ccccc3CO2)c1 (configuration not stated) for me?
**Result** 107 % of control

**Query** Same again, this time with CC[As](CC)SC1CC2C3CCC4=CC(=O)C=CC4(C)C3C(=O)CC2(C)C1C(=O)CC(C)=O (configuration not stated)
**Result** 103 % of control
